test: Pharmacokinetic experiment (blood concentration by HPLC); format: in vivo, mice; conditions: male, mouse, blood, po, 20 mg/kg, Oral administration, time 240 min, read-out: blood concentration, mouse-1

>  <Compound>
CO/N=C(\C(=O)NC1C(=O)N2C(C(=O)O)=C(Sc3cc(N)nc(N)n3)CSC12)c1csc(N)n1 (stereo not shown)

>  <concentration at 240 min / ng/mL>
60

$$$$

* * *

experiment: Pharmacokinetic experiment (blood concentration by HPLC); type: in vivo, mice; details: male, mouse, blood, po, 20 mg/kg, Oral administration, time 180 min, read-out: blood concentration, mouse-3

>  <Compound>
CO/N=C(\C(=O)NC1C(=O)N2C(C(=O)O)=C(Sc3cc(N)nc(N)n3)CSC12)c1csc(N)n1 (stereo not shown)

>  <concentration at 180 min (ng/mL)>
240

$$$$
